target: T1, recombinant human CD137 (Homo sapiens, UniProt Q07011); experiment: Biacore T200 SPR affinity of Dual-Fab antibodies to human CD137; format: binding; conditions: 37 degrees C, pH 7.4
T1 construct: made in house; host or cells: FreeStyle293F
T1 sequence (Q07011 with tags, fused parts or gaps): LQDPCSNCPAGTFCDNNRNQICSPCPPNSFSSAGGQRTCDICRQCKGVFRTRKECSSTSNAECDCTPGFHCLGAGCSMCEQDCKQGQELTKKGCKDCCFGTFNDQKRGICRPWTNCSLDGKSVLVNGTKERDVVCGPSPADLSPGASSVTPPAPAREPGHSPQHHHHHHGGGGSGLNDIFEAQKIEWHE

[
  {
    "MOLECULE": "H1550L0918: affinity matured Dual-Fab variant, VH SEQ ID NO 92, VL SEQ ID NO 144 (antibody, V domains shown) VH: QVQLVESGGGLVQPGRSLRLSCAASGFKFSNVWMHWVRQAPGKGLEWVAQIKDKYNAYAAYYAPSVKGRFTISRDDSKNSIYLQMNSLKTEDTAVYYCHYIHYASASTLLPAFGVDAWGQGTTVTVSS VL: DIVMTQSPLSLPVTPGEPASISCQPSQEVVHMNNVVYLHWYQQKPGQAPRLLIYKVSNRFPGVPDRFSGSGSGTDFTLKISRVEAEDVGVYYCAQGTSHPFTFGQGTKLEIK",
    "CD137 Koff (s⁻¹)": 0.00579
  }
]
